# System: U2OS
# assay_details: cells
# Assay type: functional, cell-based, Homo sapiens, U-2-OS
# measurement_parameters: Homo sapiens, U2OS
# Description: SANGER: Inhibition of human U-2-OS cell growth in a cell viability assay.
Below, each entry is listed alongside its reported IC50.

Would you please look over these solved cases?
>  <molecule>
CC(C)CCN1c2nc(Nc3cc(F)c(O)c(F)c3)ncc2N(C)C(=O)C1C (stereo not drawn)

>  <target_or_test_system>
U2OS

>  <readout_value>
> 5 µM

$$$$
>  <molecule>
Oc1ccc2ccccc2c1SSc1c(O)ccc2ccccc12

>  <target_or_test_system>
U2OS;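 note: growth inhibition of human U-2-OS cells, determined with a cell viability assay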

>  <readout_value>
> 32 µM

$$$$

Kindly consider the entry below.
Name the reported IC50 value associated with the molecule `CC1(C)CNc2cc(NC(=O)c3cccnc3NCc3ccncc3)ccc21` > 2 µM
